test: folding enthalpy; higher = less favourable; fluorescence melt of hairpins on a sequencing array, two-state fit; conditions: sodium 0.088 M
MEASURED ENDPOINT: folding enthalpy (kcal/mol)

* GCGCTGCGAAAGCTGGGC ((.(.((....)).).)) | -24.4
* GCGGGGGGAAACCTCCGC ((((.((....)).)))) | -40.9
* GCTCGGCGAAAGCGCAGC (((..((....))..))) | -9.7
* GCGACCGAAAGGTCTCGC ((((((....)))..))) | -14.6
* GGGGGCGGAAACACCCCC (((((.(....).))))) | -39.3
* GCATGTGGAAACACATAC (.(((((....))))).) | -14.9
* GCAGAGCGAAAGCGTTGC (((..((....))..))) | -19.4
* GTAAGTGAAAACTTAC ((((((....)))))) | -27.4
* GCTGTTGGAAACAACGGC ((.((((....)))).)) | -39.8
* GATCTAGTGTAGATC ((((((...)))))) | -26.4
* GGTCCCGGAAACGAGACC ((((.((....)).)))) | -32
* GACCTGGGAAACTAGGTC (((((.(....).))))) | -42.5

====

experiment: melting temperature; fluorescence melt of hairpins on a sequencing array, two-state fit, raised by 9.35 °C to match UV melts; conditions: sodium 0.088 M
Binary call on Tm: yes from 60 °C upward, no beneath that.

- GCGTGGCGAAAGCTCCGC (((..((....))..))): no
- GCCCCCGGAAACGGGGAC (.(((((....))))).): no
- GCAGGGGGAAACCTCTGC ((((.((....)).)))): no
- GAACCAGGAAACTGGTTC (((((((....))))))): yes
- GCGCTTTCGAAAGAACGC (((..(((....)))))): no
- GGGACTGGAAACAGTCCC (((((((....))))))): yes

====

assay: melting temperature; fluorescence melt of hairpins on a sequencing array, two-state fit, raised by 9.35 °C to match UV melts; conditions: sodium 0.088 M
MEASURED ENDPOINT: Tm (°C)

* CGAGCCGGAAACGGTCG (((.(((....)))))) | 48.6
* CGCTCGGAAACGATCGCG ((((((....)))..))) | 40.2
* CGGTACGGAAACGTGCCG (((.(((....))).))) | 59.8
* GCGTGCGAAAGCAGACGC ((((((....)))..))) | 62.7
* GAGGTCGGAAACGACTTC ((.((((....)))).)) | 48.6
* GTCCCACGAAAGTGTGAC (((.(((....))).))) | 50.4
* GGAGTTACGAAAGTATCC (((..(((....)))))) | 26.1
* GGTAGTGAAAACTACC ((((((....)))))) | 58.5
* GGTCTGGGAAACTGGACC ((((..(....)..)))) | 45.1
* GCATTTCCGAAAGGATGC (((..(((....)))))) | 38.4
* GAGGTACGAAAGTAGCTC (((.(((....))).))) | 57.9
* GGGATACGAAAGTACCC (((.(((....)))))) | 51.2
